I'd appreciate it if you could supply Bone mineral apposition rate, Mean values for the items below.
# Test system: rats
# EXPERIMENT_DESCRIPTION: Bone mineral apposition rate in intact rats after subcutaneous injection of polypeptide, tetracycline labelling
# Assay type: in vivo, Sprague-Dawley rats
# SETTINGS: male Sprague-Dawley rats 280-380 g; about 25 nmol per animal s.c.; first set (Table Seven)
No end group written: not given here.
Answer format reminder: number followed by unit.

For GIGKRTNEHTADCKIKPNTLHKKAA [SEQ ID NO:5] , what is its reported Bone mineral apposition rate, Mean?
1.35 μm per day

Consider the sequence shown here: GIGKRTNEHTADCKIKPNTLHKKAAETLMV [SEQ ID NO:4] What is its recorded Bone mineral apposition rate, Mean?
1.31 μm per day

What value of measured Bone mineral apposition rate, Mean is listed for GIGKRTNEHTADCKIKPNTL [SEQ ID NO:6] ?
1.37 μm per day

What does the record list as Bone mineral apposition rate, Mean for GIGKRTNEHTADCKI [SEQ ID NO:7] ?
1.41 μm per day
